Reference source for all entries: PubChem BioAssay AID504382

assay.explanation: IANBD-channel fluorescence artefacts in buffer – biochemical, artefact control for cardiac RTF calcium sensitizer project, confirmation (AID 504382)
run.parameters: IANBD fluorescence interference counterscreen, EC20 Ca2+, at 7.2 µM, stronger effect = higher value, scaled: EC20 calcium 0, EC100 calcium 100
The campaign covered roughly 2,500 compounds. About 460 (18%) were called active. These entries were drawn from the full list.
endpoint.label: fluorescence artifact activation (%)
Answers are plain numbers, in %.

Cc1ccc(C(C)NC(=O)c2cccs2)cc1C (stereo unspecified); 174
O=C1c2ccccc2-c2onc3ccc(Oc4ccccc4)c1c23; 0.44
Cn1c(/C(C#N)=C(\O)CN2CCN(Cc3ccccc3)CC2)nc2ccccc21; -0.07
O=C(NC1CC1)c1cccc2c1C(=O)c1ccc(N3CCC(Cc4ccccc4)CC3)cc1S2(=O)=O; -0.05
CN(CC(=O)Nc1ccccc1Cl)C(=O)c1cc(=O)[nH]c2ccccc12; 17.4
O=C(Nc1ccccc1)NC1CS(=O)(=O)CC1O (stereo unspecified); 32.8
Cc1nc([N+](=O)[O-])c(Br)n1CC(=O)c1ccc2ccccc2c1; 0.15
Cc1ccc(Cn2c(O)c(N=NC(=S)Nc3ccccc3F)c3cc(S(=O)(=O)N4CCOCC4)ccc32)cc1; 5.72

Batch of 5 molecules: report fluorescence artifact activation for each.
1. CCOC(=O)c1sc(=NC(=O)c2cc(OC)c(OC)c(OC)c2)n(C)c1C
2. O=C(Nn1cnnc1)c1cc([N+](=O)[O-])cc([N+](=O)[O-])c1
3. O=[N+]([O-])c1ccc(NN=Cc2cccc3ccccc23)nc1
4. Nc1nc(SCC(=O)Nc2ccccc2)nc2nc3c(cc12)CCCC3
5. COc1ccc(N(CC(=O)Nc2ccccc2C(=O)NCC(C)C)S(C)(=O)=O)cc1

Response:
1. 80.1
2. 0.03
3. 7.52
4. 0.24
5. 0.65

Batch of 8 molecules: report fluorescence artifact activation for each.
1. Cc1n[nH]c(C)c1N1C(=O)c2cccc3c(N4CCCCCC4)ccc(c23)C1=O
2. COc1ccc2c(c1)cc(C(=O)N[C@@H](CCSC)C(=O)N1CCC[C@H]1C(=O)O)n2C
3. CCOc1c2ccc(C(=O)NCc3ccc(C)cc3)cc2nn1CCOC
4. CC(C)(C)C(=O)/C=c1\s/c(=C\c2ccc(-c3ccc([N+](=O)[O-])cc3)o2)c(=O)n1CC(=O)NC(N)=O
5. CCOc1ccc2nc3cc(NCc4ccc(OC)cc4)ccc3c(N)c2c1
6. C#CCN1c2ccccc2Sc2cccnc21
7. CC(Sc1nc2ncc(Cl)cc2[nH]1)C(=O)Nc1ccc(C(N)=O)cc1 (stereo unspecified)
8. Cc1nc([N+](=O)[O-])c(Sc2nc3ccccc3n2C)n1Cc1ccccc1

Response:
1: 0.08; 2: 1.37; 3: 0.08; 4: 7.12; 5: 0.41; 6: 0.15; 7: -0.03; 8: 17.2
